Attribution: ChEMBL document CHEMBL4699494

This section lists pIC50 readings for Histone deacetylase 2 (Homo sapiens, UniProt Q92769).
pIC50: −log10 of the molar value.
ATTRIBUTE_MEASURED: pIC50

# CHEMICAL_STRING, ATTRIBUTE_MEASURED, VAL
rows = [
    ("O=C(NO)c1ccc(CN2C(=O)/C(=C3\\Nc4ccccc4\\C3=N/O)c3cccc(Cl)c32)cc1", "pIC50", 7.06),
    ("O=C(NO)c1ccc(CN2C(=O)/C(=C3\\Nc4ccccc4\\C3=N/O)c3cc(Br)ccc32)cc1", "pIC50", 7.12),
    ("O=C(NO)c1ccc(CN2C(=O)/C(=C3\\Nc4ccccc4\\C3=N/O)c3cc(Cl)ccc32)cc1", "pIC50", 6.73),
]

###

# System: NCI-H23
# PROTOCOL_DESCRIPTION: Cytotoxicity against human NCI-H23 cells by colorimetric method
# Format: functional, cell-based
Documented IC50 across a set of compounds
ATTRIBUTE_MEASURED: IC50

# CHEMICAL_STRING, ATTRIBUTE_MEASURED, VAL
measured = [
    ("COc1ccc2c(c1)/C(=C1/Nc3ccccc3/C1=N\\O)C(=O)N2Cc1ccc(C(=O)NO)cc1", "IC50", "90 nM"),
    ("O=C(/C=C/c1ccc(CN2C(=O)/C(=C3\\Nc4ccccc4\\C3=N/O)c3cc(F)ccc32)cc1)NO", "IC50", "8 nM"),
    ("Cc1ccc2c(c1)/C(=C1/Nc3ccccc3/C1=N\\O)C(=O)N2Cc1ccc(C(=O)NO)cc1", "IC50", "10 nM"),
    ("O=C(CCCCCCN1C(=O)/C(=C2\\Nc3ccccc3\\C2=N/O)c2ccccc21)NO", "IC50", "90 nM"),
    ("O=C(NO)c1ccc(CN2C(=O)/C(=C3\\Nc4ccccc4\\C3=N/O)c3cccc(Cl)c32)cc1", "IC50", "60 nM"),
    ("Cc1ccc2c(c1)/C(=C1/Nc3ccccc3/C1=N\\O)C(=O)N2CCCCCCC(=O)NO", "IC50", "10 nM"),
    ("O=C(NO)c1ccc(CN2C(=O)/C(=C3\\Nc4ccccc4\\C3=N/O)c3cc(Cl)ccc32)cc1", "IC50", "50 nM"),
    ("COc1ccc2c(c1)/C(=C1/Nc3ccccc3/C1=N\\O)C(=O)N2Cc1ccc(/C=C/C(=O)NO)cc1", "IC50", "50 nM"),
    ("O=C(CCCCCCN1C(=O)/C(=C2\\Nc3ccccc3\\C2=N/O)c2cc(F)ccc21)NO", "IC50", "8 nM"),
]

###

# TESTED_TARGET: Histone deacetylase
# PROTOCOL_DESCRIPTION: Inhibition of HDAC in human HeLa nuclear extract using fluoroscence-labeled acetylated peptide as substrate by fluorometric assay
# Type: subcellular, Nucleus
Documented IC50 across a set of compounds
ATTRIBUTE_MEASURED: IC50 (µM)

# CHEMICAL_STRING, VAL
data = [
    ("O=C(NO)c1ccc(CN2C(=O)/C(=C3\\Nc4ccccc4\\C3=N/O)c3cc(F)ccc32)cc1", 0.218),
    ("O=C(/C=C/c1ccc(CN2C(=O)/C(=C3\\Nc4ccccc4\\C3=N/O)c3cc(Br)ccc32)cc1)NO", 0.183),
    ("O=C(NO)c1ccc(CN2C(=O)/C(=C3\\Nc4ccccc4\\C3=N/O)c3cc(Br)ccc32)cc1", 0.039),
    ("O=C(NO)c1ccc(CN2C(=O)/C(=C3\\Nc4ccccc4\\C3=N/O)c3cc(Cl)ccc32)cc1", 0.174),
    ("O=C(CCCCCCN1C(=O)/C(=C2\\Nc3ccccc3\\C2=N/O)c2cc(Br)ccc21)NO", 0.004),
    ("O=C(CCCCCCN1C(=O)/C(=C2\\Nc3ccccc3\\C2=N/O)c2cccc(Cl)c21)NO", 0.007),
    ("O=C(/C=C/c1ccc(CN2C(=O)/C(=C3\\Nc4ccccc4\\C3=N/O)c3cc(F)ccc32)cc1)NO", 0.422),
    ("O=C(NO)c1ccc(CN2C(=O)/C(=C3\\Nc4ccccc4\\C3=N/O)c3ccccc32)cc1", 0.195),
    ("O=C(CCCCCCN1C(=O)/C(=C2\\Nc3ccccc3\\C2=N/O)c2cc(Cl)ccc21)NO", 0.003),
]
